Data origin, for the record: ChEMBL document CHEMBL4368939

Molecular target: Tryptophan 2,3-dioxygenase (Homo sapiens, UniProt P48775)
Sequence (P48775 whole entry, looked up): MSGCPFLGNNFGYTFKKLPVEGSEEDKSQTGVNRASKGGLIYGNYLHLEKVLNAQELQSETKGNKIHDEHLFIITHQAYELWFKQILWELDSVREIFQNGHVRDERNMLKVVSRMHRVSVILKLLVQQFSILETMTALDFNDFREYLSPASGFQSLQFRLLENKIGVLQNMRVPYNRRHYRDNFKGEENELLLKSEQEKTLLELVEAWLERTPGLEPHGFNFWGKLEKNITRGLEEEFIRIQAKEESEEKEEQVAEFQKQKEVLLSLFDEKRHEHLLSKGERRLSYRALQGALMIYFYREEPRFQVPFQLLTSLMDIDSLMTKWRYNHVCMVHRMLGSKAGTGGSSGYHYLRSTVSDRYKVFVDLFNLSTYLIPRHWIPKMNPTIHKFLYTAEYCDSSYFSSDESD
Assay: Inhibition of human TDO expressed in Escherichia coli at 10 uM using L-tryptophan as substrate after 1 hr by UV absorption analysis
VALUE_KIND: inhibition

Solved cases (2 shown):
Cc1cc(CNc2cc(Br)cc3[nH]ncc23)ccc1O = 30%
Brc1cc(NCc2cnc[nH]2)c2cn[nH]c2c1 = 54%

Lab note: next molecule to report on.
// inhibition lookup, key: `ONc1ccc(CNc2cc(Br)cc3[nH]ncc23)cc1` 6%

----------
Molecular target: Tryptophan 2,3-dioxygenase (Homo sapiens, UniProt P48775)
Experiment: Inhibition of human TDO expressed in Escherichia coli at 10 uM using L-tryptophan as substrate after 1 hr by UV absorption analysis
Activity calls are given as the source filed them. The rule behind the calls is not given here.
VALUE_KIND: inhibition

CC(Nc1cc(Br)cc2[nH]ncc12)c1ccccc1 (stereo not drawn) = inactive
Cc1cc(O)ccc1CNc1cc(Br)cc2[nH]ncc12 = 19%
CCOC(=O)CNc1cccc(CNc2cc(Br)cc3[nH]ncc23)c1 = inactive
